src = the nanobody polyreactivity screen of Harvey et al. (2022)

assay: yeast display, Sf9 membrane polyspecificity reagent, FACS + sequencing; frameworks hold sequencing errors
measuredParameter: polyreactivity (PSR sort gate)

Some sequences with known polyreactivity (PSR sort gate) results, for comparison:
# input Record request: polyreactivity (PSR sort gate) value, item QVQLVESGGGLVQAGGSLRLSCAASGSIFQAYAMGWYRQAPGKERELVASISSGGGTNYADSVKGRFTISRDNAKNTVYLQMNSLKPEDTAVYYCAADVYLVKYDYWGQGTQVTVSS
# output low polyreactivity

# input Record request: polyreactivity (PSR sort gate) value, item QVQLVESGGGLVQAGGSLRLSCAASGSTFSSYAMGWYRQAPGKERELVAATYYADSVKGRFTISRDNAKNTVYLQMNSLKPEDTAVYYCNADNAYQGGKEYDYWGQGTQVTVSS
# output low polyreactivity

# input Record request: polyreactivity (PSR sort gate) value, item QVQLVESGVGLVQAGGSLRLICAASGSTFGYYAMGWYRQAPGKERELVAAITGRGGSTYYADSVKGRFTISRDNAKNTVYLQMNSLKPEDTAVYYCAVGKYRLYYSGAYGFWGQGTQVTVSS
# output high polyreactivity

# input Record request: polyreactivity (PSR sort gate) value, item QVQLVESGGGLVQAGGSLRLSCAASGSIFYNYAMGWYRQAPGKERELVAAISQSGGSTRYADSVKGRFTISRDNAKNTVYVQMNSLKPEDTAVYYCAASRRKGQGSAGFGYWGQGTQVTVSS
# output high polyreactivity

***
# input Record request: polyreactivity (PSR sort gate) value, item LVQLQESGGGLVQAGGSLRLSCAASGTISPGGNMGWYRQAPGKERELLASINVGGSTNYADSVKGRFTISRDNAINTVFLQMNSLKPDDNAVFYCAVWGRNRLQLSYWGQGTQVTVSS
# output low polyreactivity

# input Record request: polyreactivity (PSR sort gate) value, item QVQLVESGGCLVQAGGSLRLSCAASGSIIYCYAMGWYRQAPGKERELVADISRGGITYYADSVKGRFTISRDNAKNTVYLQMNSLKPEDTAVYYCSKTHYGVQRLDSWGQGTQVTVSS
# output low polyreactivity

# input Record request: polyreactivity (PSR sort gate) value, item QVQLVESGGGLVQAGGSLRLSCAASGGTYRSNAMGWYRQAPGKERELVAASTNYADSVKGRFTISRDNAKNTVYLQMNSLKPEDTAVYYCAAGPTDSQTGMDYWGQGTQVTVSS
# output low polyreactivity

# input Record request: polyreactivity (PSR sort gate) value, item QVQLVESGGGLVQAGGSLRLSCAASGRIFIIYAMGWYRQAPGKEREFVAAITSSGGSTYYADSVKGRFTISRDNAKNTVYLQMYSLKPEDTAVYYCNKVTRYYREYHRDSQYGYWGQGTQVTVSS
# output high polyreactivity

# input Record request: polyreactivity (PSR sort gate) value, item QVQLVESGGGLVQAGGSLRLSCAASGIILSENAKGWYRQAPGKERELVAAITSSGSTNYADSVKGRLTISRDNAKNTVYLQMNSLKPVDTAVYYCATQNLYVSWYYAWYGYGYWGQGTQVNVSS
# output low polyreactivity

# input Record request: polyreactivity (PSR sort gate) value, item QVQLVESGGGLVQAGGSLRLSCAASGNIFGDNAMGWYRQAPGKERELVAAITRIDGNTYYADSVKGRFTISRDNAKNTVYLQMNSLKPEDTAVYYCATDEPVGRYQHNYYWGQGSQVTVSS
# output low polyreactivity

# input Record request: polyreactivity (PSR sort gate) value, item QVQLVESGGGLVQAGGSLRLSCAASGRIFPAYAMGWYRQAPGKERELVASIRRGGITYADSVKGRFTISRDNAKNTVYLLMNSLKPEDTAVYYCNAYVNRATAGRYYSWGQGTQVTVSS
# output low polyreactivity
